Each item that follows carries a reported protein stability index.
B1: PTPRD (parent)
chain: PVVSMDLDPQPITDEEEGLIWVVG

Variants of: B1
Experiment: protein stability index of a GFP-peptide fusion (GPS, HEK-293T) (PSI 1-6); higher = more stable;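 note: lentivirally expressed fusions sorted by FACS into six bins by GFP to DsRed ratio, PSI derived from sequencing read proportions per bin multiplied by bin number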
Conditions: c terminus: a fixed tail appended
Give your answer as a number; write no unit.

PVVSMDLDPDPITDEEEGLIWVVG [Q10D]    4.27
PVVSMDLDPQPITLEEEGLIWVVG [D14L]    2.06
PVVSMDLDPQPITDEEAGLIWVVG [E17A]    2.26
PVVSMDLDPQPITDECEGLIWVVG [E16C]    1.94

Prompt line: Complete the entry with protein stability index for PVVSMDLDPQPITCEEEGLIWVVG [D14C]
Response line: 2.9

Prompt line: Complete the entry with protein stability index for PVVSMDLDWQPITDEEEGLIWVVG [P9W]
Response line: 2.96

Prompt line: Complete the entry with protein stability index for PVVSMDLDPQPLTDEEEGLIWVVG [I12L]
Response line: 3.95

Prompt line: Complete the entry with protein stability index for LVVSMDLDPQPITDEEEGLIWVVG [P1L]
Response line: 1.79

Prompt line: Complete the entry with protein stability index for PVTSMDLDPQPITDEEEGLIWVVG [V3T]
Response line: 4.66

Prompt line: Complete the entry with protein stability index for PVVSMDLDPQPITFEEEGLIWVVG [D14F]
Response line: 2.14

Prompt line: Complete the entry with protein stability index for WVVSMDLDPQPITDEEEGLIWVVG [P1W]
Response line: 2.17
